MEASURED ON: MSSK1 (Homo sapiens, UniProt Q9UPE1)
Sequence (Q9UPE1 whole entry): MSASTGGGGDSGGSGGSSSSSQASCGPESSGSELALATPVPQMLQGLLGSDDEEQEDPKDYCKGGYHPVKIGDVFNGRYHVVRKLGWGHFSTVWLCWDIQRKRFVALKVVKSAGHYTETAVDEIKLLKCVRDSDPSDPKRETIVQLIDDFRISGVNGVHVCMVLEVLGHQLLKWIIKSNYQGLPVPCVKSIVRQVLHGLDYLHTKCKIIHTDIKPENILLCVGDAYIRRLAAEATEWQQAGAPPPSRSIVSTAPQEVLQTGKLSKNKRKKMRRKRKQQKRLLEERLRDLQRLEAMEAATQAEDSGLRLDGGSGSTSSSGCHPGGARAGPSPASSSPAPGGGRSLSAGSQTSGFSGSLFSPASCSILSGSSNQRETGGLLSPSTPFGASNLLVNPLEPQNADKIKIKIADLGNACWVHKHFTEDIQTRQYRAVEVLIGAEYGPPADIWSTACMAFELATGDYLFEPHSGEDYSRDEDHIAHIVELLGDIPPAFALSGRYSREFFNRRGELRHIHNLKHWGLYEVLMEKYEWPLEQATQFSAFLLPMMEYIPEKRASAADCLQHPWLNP
MEASUREMENT LABEL: IC50

[ask] Report IC50 for C[C@H]1CN(c2c(NC(=O)c3ccc(F)c(-c4c(F)cccc4F)n3)cnc3c2CC[C@H]3O)C[C@@H](N)[C@@H]1O.O=P(O)(O)O tested on MSSK1 (Homo sapiens, UniProt Q9UPE1).
[reply] > 20 µM

* * *

Protein target, amino acids: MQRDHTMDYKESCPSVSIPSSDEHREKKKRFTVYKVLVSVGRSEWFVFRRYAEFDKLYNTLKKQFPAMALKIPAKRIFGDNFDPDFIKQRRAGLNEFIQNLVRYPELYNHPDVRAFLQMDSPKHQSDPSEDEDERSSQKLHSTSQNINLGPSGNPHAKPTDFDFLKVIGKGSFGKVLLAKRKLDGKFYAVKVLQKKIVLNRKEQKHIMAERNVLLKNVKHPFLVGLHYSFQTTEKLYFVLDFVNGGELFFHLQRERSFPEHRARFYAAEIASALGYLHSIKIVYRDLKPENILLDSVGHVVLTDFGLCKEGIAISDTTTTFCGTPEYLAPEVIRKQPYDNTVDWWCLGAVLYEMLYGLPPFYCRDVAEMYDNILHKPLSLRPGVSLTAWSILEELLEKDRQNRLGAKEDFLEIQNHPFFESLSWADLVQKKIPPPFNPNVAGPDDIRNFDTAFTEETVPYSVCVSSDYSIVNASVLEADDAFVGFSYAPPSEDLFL
MEASUREMENT LABEL: IC50

[ask] // returns reported IC50 for input C[C@H]1CN(c2c(NC(=O)c3ccc(F)c(-c4c(F)cccc4F)n3)cnc3c2CC[C@H]3O)C[C@@H](N)[C@@H]1O.O=P(O)(O)O [INCB053914]
[reply] > 20 µM

* * *

MEASURED ON: TRKA (Homo sapiens)
Sequence (P04629 33-796, species assumed): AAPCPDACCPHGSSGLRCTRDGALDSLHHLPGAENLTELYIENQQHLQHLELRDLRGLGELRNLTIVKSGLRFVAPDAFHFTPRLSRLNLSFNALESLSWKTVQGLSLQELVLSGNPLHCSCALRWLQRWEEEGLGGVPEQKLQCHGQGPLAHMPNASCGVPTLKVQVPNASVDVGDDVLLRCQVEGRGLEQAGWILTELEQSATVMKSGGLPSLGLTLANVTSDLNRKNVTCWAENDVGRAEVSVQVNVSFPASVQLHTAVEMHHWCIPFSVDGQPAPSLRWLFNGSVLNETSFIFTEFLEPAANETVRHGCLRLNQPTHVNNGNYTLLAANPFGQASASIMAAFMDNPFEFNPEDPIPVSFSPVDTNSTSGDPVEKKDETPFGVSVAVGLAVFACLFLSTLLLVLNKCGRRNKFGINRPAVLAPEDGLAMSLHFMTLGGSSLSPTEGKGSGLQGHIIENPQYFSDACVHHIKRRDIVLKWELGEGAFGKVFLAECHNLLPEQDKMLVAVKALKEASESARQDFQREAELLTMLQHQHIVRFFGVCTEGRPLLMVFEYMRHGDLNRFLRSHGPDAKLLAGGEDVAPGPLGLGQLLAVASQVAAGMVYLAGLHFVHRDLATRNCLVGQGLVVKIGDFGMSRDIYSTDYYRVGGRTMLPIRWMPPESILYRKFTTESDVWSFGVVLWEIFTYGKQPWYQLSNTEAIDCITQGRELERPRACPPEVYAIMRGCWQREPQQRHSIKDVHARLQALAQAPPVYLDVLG
METHOD: Kinase selectivity panel
Assay type: biochemical
EXPERIMENTAL PARAMETERS: [ATP] = 1 mM
MEASUREMENT LABEL: IC50

[ask] // returns reported IC50 for input C[C@H]1CN(c2c(NC(=O)c3ccc(F)c(-c4c(F)cccc4F)n3)cnc3c2CC[C@H]3O)C[C@@H](N)[C@@H]1O.O=P(O)(O)O [INCB053914]
[reply] > 20 µM

* * *

System: BAD phosphorylation in whole blood spiked with MOLM-16 cells
METHOD: BAD phosphorylation in whole blood samples spiked with tumor cells, treated ex vivo
Format: cell-based
EXPERIMENTAL PARAMETERS: MOLM16
MEASUREMENT LABEL: IC50 (nM)
A number alone suffices; assume nM.

[ask] // returns reported IC50 for input C[C@H]1CN(c2c(NC(=O)c3ccc(F)c(-c4c(F)cccc4F)n3)cnc3c2CC[C@H]3O)C[C@@H](N)[C@@H]1O.O=P(O)(O)O
[reply] 76

* * *

MEASURED ON: NLK (Homo sapiens)
Sequence (Q9UBE8 whole entry): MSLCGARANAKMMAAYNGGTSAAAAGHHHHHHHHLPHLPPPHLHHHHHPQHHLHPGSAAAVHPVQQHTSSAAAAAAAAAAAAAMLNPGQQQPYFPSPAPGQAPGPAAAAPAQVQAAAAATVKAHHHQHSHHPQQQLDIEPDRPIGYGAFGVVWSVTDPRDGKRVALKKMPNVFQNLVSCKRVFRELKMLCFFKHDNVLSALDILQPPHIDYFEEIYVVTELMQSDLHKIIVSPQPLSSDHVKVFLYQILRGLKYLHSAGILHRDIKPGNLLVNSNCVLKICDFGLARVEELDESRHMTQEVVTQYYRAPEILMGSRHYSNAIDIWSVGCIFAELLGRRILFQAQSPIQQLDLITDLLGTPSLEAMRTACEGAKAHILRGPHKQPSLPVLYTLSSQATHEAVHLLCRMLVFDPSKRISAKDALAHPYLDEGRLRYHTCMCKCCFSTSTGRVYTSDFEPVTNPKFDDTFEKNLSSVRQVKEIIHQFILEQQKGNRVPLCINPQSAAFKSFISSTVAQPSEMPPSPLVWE
METHOD: Kinase selectivity panel
Type: biochemical
EXPERIMENTAL PARAMETERS: [ATP] = 1 mM
pIC50: −log10 of the molar value.
MEASUREMENT LABEL: pIC50

[ask] // returns reported pIC50 for input C[C@H]1CN(c2c(NC(=O)c3ccc(F)c(-c4c(F)cccc4F)n3)cnc3c2CC[C@H]3O)C[C@@H](N)[C@@H]1O.O=P(O)(O)O [INCB053914]
[reply] < 4.70

* * *

MEASURED ON: TIE2 (Homo sapiens)
Sequence (Q02763 23-1124, species assumed): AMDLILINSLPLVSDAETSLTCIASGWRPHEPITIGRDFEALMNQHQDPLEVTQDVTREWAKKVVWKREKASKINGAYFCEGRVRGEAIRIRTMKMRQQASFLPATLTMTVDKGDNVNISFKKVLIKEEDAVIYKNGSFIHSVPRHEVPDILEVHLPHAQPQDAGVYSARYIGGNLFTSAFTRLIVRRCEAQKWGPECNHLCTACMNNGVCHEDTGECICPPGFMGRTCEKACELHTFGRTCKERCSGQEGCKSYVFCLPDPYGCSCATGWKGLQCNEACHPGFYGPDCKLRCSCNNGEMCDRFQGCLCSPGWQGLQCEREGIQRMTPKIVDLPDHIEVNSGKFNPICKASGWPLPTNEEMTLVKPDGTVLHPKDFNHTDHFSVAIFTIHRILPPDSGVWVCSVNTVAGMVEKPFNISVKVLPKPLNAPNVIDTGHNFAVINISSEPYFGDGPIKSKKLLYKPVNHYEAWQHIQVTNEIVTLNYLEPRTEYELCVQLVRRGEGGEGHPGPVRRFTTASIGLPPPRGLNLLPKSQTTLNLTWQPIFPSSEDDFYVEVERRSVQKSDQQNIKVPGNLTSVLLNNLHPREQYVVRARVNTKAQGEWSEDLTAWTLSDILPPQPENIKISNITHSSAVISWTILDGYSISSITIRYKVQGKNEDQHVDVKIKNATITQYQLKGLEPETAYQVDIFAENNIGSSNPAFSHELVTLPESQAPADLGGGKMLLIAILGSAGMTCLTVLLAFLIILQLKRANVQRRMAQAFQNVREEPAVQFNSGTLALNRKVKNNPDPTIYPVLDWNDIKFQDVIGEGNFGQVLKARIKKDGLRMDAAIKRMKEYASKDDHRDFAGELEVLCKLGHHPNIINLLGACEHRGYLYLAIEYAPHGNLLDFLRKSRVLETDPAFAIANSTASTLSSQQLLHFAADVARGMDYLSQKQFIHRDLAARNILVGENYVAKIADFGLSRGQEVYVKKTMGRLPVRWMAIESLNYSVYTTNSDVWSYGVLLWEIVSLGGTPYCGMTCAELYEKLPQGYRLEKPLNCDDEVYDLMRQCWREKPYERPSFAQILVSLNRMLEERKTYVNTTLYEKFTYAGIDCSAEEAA
MEASUREMENT LABEL: IC50

[ask] Report IC50 for C[C@H]1CN(c2c(NC(=O)c3ccc(F)c(-c4c(F)cccc4F)n3)cnc3c2CC[C@H]3O)C[C@@H](N)[C@@H]1O.O=P(O)(O)O [INCB053914] tested on TIE2 (Homo sapiens).
[reply] > 20 µM

* * *

MEASURED ON: RPS6KB1 (Homo sapiens, UniProt P23443)
Sequence (P23443 whole entry): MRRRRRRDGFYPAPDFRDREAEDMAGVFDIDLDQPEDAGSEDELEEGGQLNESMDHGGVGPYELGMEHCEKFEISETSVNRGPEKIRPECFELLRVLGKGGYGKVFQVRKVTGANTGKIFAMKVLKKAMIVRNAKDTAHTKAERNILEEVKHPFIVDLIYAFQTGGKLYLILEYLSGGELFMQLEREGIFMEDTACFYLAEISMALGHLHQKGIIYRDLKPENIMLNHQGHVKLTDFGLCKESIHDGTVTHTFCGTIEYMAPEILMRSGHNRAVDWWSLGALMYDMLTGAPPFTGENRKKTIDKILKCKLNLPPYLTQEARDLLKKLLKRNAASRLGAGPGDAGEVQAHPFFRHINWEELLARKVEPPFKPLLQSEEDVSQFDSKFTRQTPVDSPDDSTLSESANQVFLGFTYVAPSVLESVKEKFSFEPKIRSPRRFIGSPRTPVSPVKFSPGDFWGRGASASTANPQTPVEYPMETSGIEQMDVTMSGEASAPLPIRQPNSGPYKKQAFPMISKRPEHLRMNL
MEASUREMENT LABEL: IC50

[ask] // returns reported IC50 for input C[C@H]1CN(c2c(NC(=O)c3ccc(F)c(-c4c(F)cccc4F)n3)cnc3c2CC[C@H]3O)C[C@@H](N)[C@@H]1O.O=P(O)(O)O [INCB053914]
[reply] > 20 µM

* * *

MEASURED ON: CAMK2D (Homo sapiens, UniProt Q13557)
Sequence (Q13557 whole entry): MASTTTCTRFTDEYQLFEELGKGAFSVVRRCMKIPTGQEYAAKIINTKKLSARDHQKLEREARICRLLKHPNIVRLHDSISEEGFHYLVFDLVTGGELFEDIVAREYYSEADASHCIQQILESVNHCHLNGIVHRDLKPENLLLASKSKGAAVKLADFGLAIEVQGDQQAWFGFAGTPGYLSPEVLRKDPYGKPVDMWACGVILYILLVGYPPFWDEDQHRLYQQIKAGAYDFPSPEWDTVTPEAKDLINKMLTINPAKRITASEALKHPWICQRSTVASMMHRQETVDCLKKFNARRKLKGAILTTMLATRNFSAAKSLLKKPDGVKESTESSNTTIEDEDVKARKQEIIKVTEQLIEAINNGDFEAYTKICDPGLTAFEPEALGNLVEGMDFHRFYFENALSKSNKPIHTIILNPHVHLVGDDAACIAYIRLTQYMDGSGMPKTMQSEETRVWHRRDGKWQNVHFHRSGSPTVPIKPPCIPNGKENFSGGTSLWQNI
MEASUREMENT LABEL: IC50

[ask] Report IC50 for C[C@H]1CN(c2c(NC(=O)c3ccc(F)c(-c4c(F)cccc4F)n3)cnc3c2CC[C@H]3O)C[C@@H](N)[C@@H]1O.O=P(O)(O)O tested on CAMK2D (Homo sapiens, UniProt Q13557).
[reply] > 20 µM

Data provenance: paper PMC6013247
